- Organism: Oryctolagus cuniculus
- test description: The compound was evaluated for the inhibition of Na+-dependent [3H]taurocholate uptake into ileal brush border membrane vesicles in rabbit, by 50%
- Format: functional
Measured IC50 of individual entries
readout type: IC50

[[record]]
molecule = "CC(CCC(=O)O)C1CC[C@H]2[C@@H]3[C@H](O)C[C@@H]4C[C@@H](NC(=O)CCC(C)C5CC[C@H]6[C@@H]7CC[C@@H]8C[C@H](O)CC[C@]8(C)[C@H]7CC[C@]56C)CC[C@]4(C)[C@H]3C[C@H](O)[C@]12C (stereo partly drawn)"
assay_value = "> 250 µM"

[[record]]
molecule = "CC(CCC(=O)O)C1CC[C@H]2[C@@H]3[C@H](O)C[C@@H]4C[C@@H](OCCNC(=O)CCC(C)C5CC[C@H]6[C@@H]7CC[C@@H]8C[C@H](O)CC[C@]8(C)[C@H]7CC[C@]56C)CC[C@]4(C)[C@H]3C[C@H](O)[C@]12C (stereo partly drawn)"
assay_value = "> 250 µM"

[[record]]
molecule = "CC(CCC(=O)O)C1CC[C@H]2[C@@H]3[C@H](O)C[C@@H]4C[C@@H](OCCNC(=O)CCC(C)C5CC[C@H]6[C@@H]7[C@H](O)C[C@@H]8C[C@H](OC(c9ccccc9)c9ccccc9)CC[C@]8(C)[C@H]7C[C@H](O)[C@]56C)CC[C@]4(C)[C@H]3C[C@H](O)[C@]12C (stereo partly drawn)"
assay_value = "> 250 µM"


# credit: ChEMBL document CHEMBL1127680
